conditions: in water, 293.15 K
OBSERVABLE: solubility (mole fraction)
Provide a numeric answer; units are not to be included.

INPUT: Look up solubility (mole fraction): COc1cccc(C=O)c1O
OUTPUT: 0.000496

----------
details: in ethanol, 273.15 K
OBSERVABLE: solubility (mole fraction)
Provide a numeric answer; units are not to be included.

INPUT: Look up solubility (mole fraction): COc1cccc(C=O)c1O
OUTPUT: 0.0401

----------
conditions: in n-propanol, 273.15 K
OBSERVABLE: solubility (mole fraction)

INPUT: Look up solubility (mole fraction): COc1cccc(C=O)c1O
OUTPUT: 0.0312

----------
settings: in water, 283.15 K
OBSERVABLE: solubility (mole fraction)
Provide a numeric answer; units are not to be included.

INPUT: Look up solubility (mole fraction): COc1cccc(C=O)c1O
OUTPUT: 0.000332

----------
conditions: in ethanol, 293.15 K
OBSERVABLE: solubility (mole fraction)
Provide a numeric answer; units are not to be included.

INPUT: Look up solubility (mole fraction): COc1cccc(C=O)c1O
OUTPUT: 0.226

----------
settings: in n-propanol, 298.15 K
OBSERVABLE: solubility (mole fraction)
Provide a numeric answer; units are not to be included.

INPUT: Look up solubility (mole fraction): COc1cccc(C=O)c1O
OUTPUT: 0.299

----------
settings: in water, 303.15 K
OBSERVABLE: solubility (mole fraction)

INPUT: Look up solubility (mole fraction): COc1cccc(C=O)c1O
OUTPUT: 0.000786

----------
conditions: in water, 278.15 K
OBSERVABLE: solubility (mole fraction)
Provide a numeric answer; units are not to be included.

INPUT: Look up solubility (mole fraction): COc1cccc(C=O)c1O
OUTPUT: 0.000268

----------
details: in n-propanol, 288.15 K
OBSERVABLE: solubility (mole fraction)
Provide a numeric answer; units are not to be included.

INPUT: Look up solubility (mole fraction): COc1cccc(C=O)c1O
OUTPUT: 0.0807

----------
conditions: in ethanol, 298.15 K
OBSERVABLE: solubility (mole fraction)
Provide a numeric answer; units are not to be included.

INPUT: Look up solubility (mole fraction): COc1cccc(C=O)c1O
OUTPUT: 0.38
